- TEST: yeast display, Sf9 membrane polyspecificity reagent, FACS + sequencing; frameworks hold sequencing errors
ASSAY_ENDPOINT: polyreactivity (PSR sort gate)

QVQLVESGGGLVQAGGSLRLSCAASGRTFVGYVMGWYRQAPGKERELVAAISKIGGRTYYADSVKGRFTISRDNAKNTVYLQMNSLKTEDTAVYYCAAERTKSIKLPRPGSMDYWGQGTQVTVSS :: low polyreactivity
QVQLVESGGGLVQAGGSLRLSCAASGIIFEPNAMGWYRQAPGKERELVAAIDSGGITYYADSVKGRFTISRDNAKNTVYLQMNSLKPEDTAVYYCAAEAVVVTKYRYWTYGLYDYWGQGTQVTVSS :: high polyreactivity
QVQLVESGGGLVQAGGSLRLSCAASGSTLWYNAMGWYRQAPGKERELVATITAGGGSTYYADSVKGRFTISRDNAKNTVYLQMNSLKPEDTAVYYCATPVASVTGYDYWGQGTQVTVSS :: low polyreactivity
QVQLVESGGGLVQAGGSLRLSCAASGSTFVKNVMGWYRQAPGKERELVAGITRGGSTYYADSVKGRFTISRDNAKNTGSLQMNSLKPEDTAVYYCANRYAWDRDYWGQGTQVTVSS :: high polyreactivity
QVQLVESGGGLVQAGGSLRLSCAASGLILVPNTMGWYRQAPGKESELVAAISDSGGGTYYADSVKGRFTISRDNAKNTVYLQMISLKPEDTAVYYCAAYGKRESAPYGYWGQGTQVTVSS :: low polyreactivity
QVQLVESGGGLVQAGGSLRLSCAASGSTRIYAMGWYRQAPGKERELVAAISWTGGRTYYADSVKGRFTISRDNAKNTVYLQMNSLKPEDTAVYYCAAKGSGRDYWGQGTQVTVSS :: high polyreactivity

Parameter requested: polyreactivity (PSR sort gate). Apply to each item below.
1. QVQLVESGGGLVQAGGSLRFSCAASGRIFSIYAMGWYRQAPGKERELVAAISKRGGSTSYADSVKGRFTISRDNAKNTVYLQMNSLKPEDTAVYYCNARGWIPARGWDDYYWGQGTQVTVSS
2. QVQLVESGGGLVQAGGSLRLSCAASGFIFTLYTMGWYRPAPGKERELVAAISGRGGYTYYADSVKGRFTISRDNAKNTVYLHMNSLKPEDTAVYYCARAAYGFRARSGGDYWGQGTQVTVSS

### Response
high polyreactivity
high polyreactivity

----------
- TEST: yeast display, Sf9 membrane polyspecificity reagent, FACS + sequencing; frameworks hold sequencing errors
ASSAY_ENDPOINT: polyreactivity (PSR sort gate)

QVQLVESGGGLVQAGGSLRLSCAASGFTFHYYVMGWYRQAPGKERELVAAINAGGVSTYYADSVKGRFTISRDNAKNTVYLQMNSLKPEDTAVYYCNARVRVRLGRNWSSYYYWGQGTQVTVSS :: high polyreactivity
QVQLVESGGGLFQAGGSLRLSCAASGSTFAPYAMGWYRHATGKERELVAAISNSGGSTYYADSVKGRFTISRDDAKNTVYLQMNCLKPEATAVLYCATLKYPYATSQGYDFWGQCTQVTVSS :: high polyreactivity

----------
- TEST: yeast display, Sf9 membrane polyspecificity reagent, FACS + sequencing; frameworks hold sequencing errors
ASSAY_ENDPOINT: polyreactivity (PSR sort gate)

QVQLVESGGGLVQAGGSRRLSCAASGRTFSKNAMGWYRQAPGKERELVAAISGSGGSTYYADSVKGRFTISRDNAKNSVYLQMNSLKPEDTAVYYCAADGTGFRYLRYDYWGQGTQVTVSS :: high polyreactivity
QVQLVESGGGLVQAGGSLRLSCAASGRTFAANTMGWYRQAPGKERELVAAINAGGSTYYADSVKGRFTISRDTAKNTVYLQMNSLKPEDTAVYYCAAKGSGYYGRQRIYSYTYDYWGQGTQVTVSS :: high polyreactivity
QGQLEESGGGLVQAGGSLRLSCAASGFIIYDYDMGRYRQAPGKERELVAAITYSGGSTYYADSVKGRFTISRDNAKNTVYLQMNSLKPEDTAVYHCAAVKSRYAVAVDYYYWGQGTQVTVSS :: low polyreactivity
QVQLVESGGGLVQAGGSLRLSCAASGSIFRIYAMGWYRPAPGKERELVAAISRGGGSTYYADSVKGRFTISRDNAKNTVYLQMNSLKPEDTAVYYCAARSPYRYYYWGQGTQVTVSS :: high polyreactivity
QVQLVESGGGLVQAGGSLRLSCAASGSIFIYNAMGWYRQAPGKERELVAAISSSGGSTYYADSVKGRFTISRDNAKNTVYLQMNSLKPEDTAVYYCAARTYYVRGLGGRTGMDYWGQGTQVTVSS :: low polyreactivity

Parameter requested: polyreactivity (PSR sort gate). Apply to each item below.
1. QVQLVESGGGLVQAGGSLRLSCAASGSIFGRYGMGWYRQAPGKERELVAAITSGTRTNYADSVKGRFTISRDNAKTTVYLQMNSLKPEDTAVYYCNALRLRGNYEYGYWGQGTQVTVSS
2. QVQLVESGGGLVQAGGSLRLSCAASGSIFVSYAMGWYRQAPGKERELVAAITRSGGSTYYADSVKGRFTISRDNAKNTLYLQMNSLKPEDTAVYYCAARSYLGAYRRYYWGQGTQVTVSS
3. QVQLVESGGGLVQAGGSLRLSCAASGSTFDTNAMGWSRQAPGKERELVAAISASGGSTYYADSVKGRFTISRDNAKNTVYLQMNSLKPEDTAVYYCAKTYSTRWWGNGGDYWGQGTQVTVSS

### Response
["low polyreactivity", "high polyreactivity", "high polyreactivity"]
